Test: yeast display, Sf9 membrane polyspecificity reagent, FACS + sequencing; frameworks hold sequencing errors

[
  {
    "residue_sequence": "QVQLVESGGGLVQAGGSLRLSCAASGFTLAYYAMGWSRQAPGKERELVAAISWSGDTTYYADSVKGRFTISRDNAKNTVYLQMNSLKPEDTAVYYCAADYYLWGQGTQVTVSS",
    "polyreactivity (PSR sort gate)": "high polyreactivity"
  },
  {
    "residue_sequence": "QVQLVESVGGLVQAGGSLRLSGAASGRTFSSYALGWYRQAPGKVRELVAGIRLSTGSTYYADSVKGRFTISRDNAKNTVYLQMNSLQPEDTAVYYCNARGWAYSGAKSYYWGQGTQVTLSS",
    "polyreactivity (PSR sort gate)": "high polyreactivity"
  },
  {
    "residue_sequence": "QVQLVESGGGLVQAGGRLRLSCAASGITIYGYAMGWYRQAPGKEREFVAAISYSGASTYYADSVKGRFTISRDNAKNTVYLQMNSLKPEDTAVYYCAARVRRSLYGYWGIGTQVTVSS",
    "polyreactivity (PSR sort gate)": "high polyreactivity"
  },
  {
    "residue_sequence": "QVQLVESGGGLVQAGGSLRLSCAASGSIFGLYAMGWYRQAPGKERELVAAITDSTGSTSYADSVKGRFTISRDNAKNTVYLQMNSLKPEDTAVYYCAAGQGRWRHGFDYWGQGTQVTVSS",
    "polyreactivity (PSR sort gate)": "low polyreactivity"
  },
  {
    "residue_sequence": "QVQLVESGGGLVQAGGSLRLSCAASGFIFYSNAMGWYRQAPGKERELVATITGDGGTTYYADSVKGRFTISRDNAKNTVYLQMNSLKPEDTAVYYCAKDYIYRGYYTDFRYEDYDYWGQGTQVTVSS",
    "polyreactivity (PSR sort gate)": "low polyreactivity"
  },
  {
    "residue_sequence": "QVQLVESGGGLVQAGGSLRLSCAASGSIFSPNAMGWYRQAPGKERELVAAISRGDSTYYADSVKGRFTISRDNAKNTVYLQMNSLKPEDTAVYYCAATYLRRPVSGAYRSEYNYWGQGTQVTVSS",
    "polyreactivity (PSR sort gate)": "high polyreactivity"
  },
  {
    "residue_sequence": "QVQLVESGGGLVQAGGSLRLSCAASGRTIWWYAMGWYRQAPGKERELVADITWIGGSTYYADSVKGRFTISRDNAKNTVYLQMNSLKPEDTAVYYCATDKDDVSDLGKDYAYFEYDYWGQGTQVTVSS",
    "polyreactivity (PSR sort gate)": "low polyreactivity"
  },
  {
    "residue_sequence": "QVQLVESGGGLVQAGGSLRLSCAASGSTIPYNTMGWYRQAPGKERELVAAISSSCRSTYYADSVKGRFTISRDNAKKTVYLQMNSLKPEDTAVYYCNAQIVASYQARRYYYWGQGTQVTVSS",
    "polyreactivity (PSR sort gate)": "low polyreactivity"
  },
  {
    "residue_sequence": "QVQLVESGGGLVQAGGILRLSCAASGRTFYINGMGWYRQAPGKEREFVASITWRGGRTYYADSVKGRFTISRDNAKNTVYLQMNSLKPEDTAVYYCIAVGLGGRAPSRWYTHYYCGQGTQVTVSS",
    "polyreactivity (PSR sort gate)": "high polyreactivity"
  },
  {
    "residue_sequence": "QVQLLESGGGLVQAGGSLSLSCMASGSILGDRMSWYRQAPGKEHELVATIYDGGITYYADSMKGRFTISRDNAKNTVYLQMNSLRPEDTAVYYCGASFEGYRYHVYCGQGTQVTVSS",
    "polyreactivity (PSR sort gate)": "low polyreactivity"
  },
  {
    "residue_sequence": "QVQLVESGGGLVQAGGSLRLSCAASGRIFYFNAMGWYRQAPGKEREFVASINSIGDSTYYADSVKGRFTISRDNAKNTVYIQMNSQKPEDTAVYYCKADHGVINYRLDYWGHGTQVTVSS",
    "polyreactivity (PSR sort gate)": "low polyreactivity"
  },
  {
    "residue_sequence": "QVQLVESGGGLVQAGGSLRLSFAGSGYIFTSYAMRWYRQAPGKERQLVARINYSGGGTSYADSVKGRFTISRDNAKHTVYLQMNSLKQEDTAVYYCAARSYWFRPTKYNYWGQGTQVTVSS",
    "polyreactivity (PSR sort gate)": "high polyreactivity"
  },
  {
    "residue_sequence": "QVQLVESGGGLVQAGGSLRLSCAAYYAMGWYRQAPGKERELVAAISSTGRTNYADSVKGRFTISRDYAKNTVYLQMNSLKPEDTAVYYCNAGDPSGMDYWGQGTQVTVSS",
    "polyreactivity (PSR sort gate)": "low polyreactivity"
  },
  {
    "residue_sequence": "QVQLVESGGGVVQAGRSLRLSCAASGSPFAYNSMGWYRKAPGKERELVAAISWRGTRTYYADSVKGRFTISRDTAKNTVNLQMNSLKPEDTAVYYCATKYGISYDYWGQGTHVTVSS",
    "polyreactivity (PSR sort gate)": "high polyreactivity"
  },
  {
    "residue_sequence": "QVQLVESGGGLDQAGGSLRLSCAASGRISGYYDMVWYRQAPGKERELVATITSDGGTNYADSVKGRFTISRDNAKNTVYLQMNSLKPEDTAVYDCAAYGWYTKWHFAYGYWGQGTQVTVSS",
    "polyreactivity (PSR sort gate)": "low polyreactivity"
  }
]
